# Test system: FGFR2
# condition: concentration: 1 μM,replicates: in singlicate; n = 1;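 also: KINOMEscan kinase panel screen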
reported property: %Inh (%)

compound	units symbol	result number
N#Cc1cccc(C(=O)NC2CCN(c3ccnc(Nc4ccc(F)cc4)n3)C2)c1 (stereo not drawn)	%	0
CC(=O)c1c(-c2ccncc2)[nH]c(-c2ccncc2)c1C	%	0
O=C(Nc1cccc(Oc2ccc3nccn3n2)c1)Nc1cccc(C(F)(F)F)c1	%	4
COc1cccc(CNC(=O)NC2CCN(c3ccnc(Nc4cc(OC)c(OC)c(OC)c4)n3)C2)c1 (stereo not drawn)	%	49
C[C@@H](Oc1cc(-n2cnc3ccc(-c4ccncc4)cc32)sc1C(N)=O)c1ccccc1Cl	%	6
CC(C)S(=O)(=O)N1CCN(Cc2ccc3c(c2)nc(NC(=O)c2ccsc2)n3C[C@H](O)c2ccccc2)CC1	%	16
CSc1nccc(-c2c(-c3ccc(F)cc3)ncn2CCCN2CCOCC2)n1.Cl	%	0
CN(c1ccc2c(c1)nc(NCc1ccc(F)cc1)n2C)c1ccnc(Nc2ccc(CS(C)(=O)=O)cc2)n1.Cl	%	59
COc1cc2nccc(Nc3ccc(Oc4ccccc4)cc3)c2cc1OC.Cl	%	0
O=C1NCCc2[nH]c(-c3ccncc3)cc21	%	4
CC(C(=O)NC1CCN(c2ccnc(Nc3ccc(F)cc3)n2)C1)c1ccc(Cl)cc1 (stereo not drawn)	%	11
COc1ccc(Nc2nccc(N3CCC(NC(=O)c4cccc(C#N)c4)C3)n2)cc1 (stereo not drawn)	%	19
CC(=O)Nc1nc2cnc(Nc3cc(NC(=O)c4cccc(CC(C)(C)C#N)c4)ccc3C)nc2s1	%	1
Cn1ccc2ncnc(Oc3ccc(NC(=O)Nc4cccc(C(F)(F)F)c4)c(Cl)c3)c21	%	10
NC(=O)Nc1sc(-c2ccc(F)cc2)cc1C(N)=O	%	7
O=C(Nc1cccc(C(F)(F)F)c1)c1cccc(Oc2ccc3nccn3n2)c1	%	15
FC(F)(F)c1cc(Br)cc(Nc2nccc(-c3cnn4ncccc34)n2)c1	%	0
COC(=O)c1cccc(NC(=O)NC2CCN(c3ccnc(Nc4cc(OC)c(OC)c(OC)c4)n3)C2)c1 (stereo not drawn)	%	0

---

# System: TRKB
# condition: concentration: 1 μM,replicates: in singlicate; n = 1
Listed below: %Inh values for each entry.
reported property: %Inh (%)

compound	result number
Cc1nnc(-c2ccc3occ(-c4ccc(S(C)=O)cc4)c3n2)o1 (centres unmarked)	0
Cl.c1ccc(Oc2ccc(Nc3ccnc4cc(-c5ccc(CN6CCNCC6)o5)ccc34)cc2)nc1 [GW567142]	0
COc1cc2c(Nc3ccc(NC(=O)c4ccccc4)cc3)ncnc2cc1OCCCN1CCOCC1 [GSK301329]	0
Cn1ccc2ncnc(Oc3ccc(NC(=O)Nc4cnn(C(C)(C)C)c4)c(Cl)c3)c21	56
COC(=O)c1cccc(NC(=O)NC2CCN(c3ccnc(Nc4cc(OC)c(OC)c(OC)c4)n3)C2)c1 (centres unmarked) [GSK1379767]	81
O=C(Nc1ccccc1)c1cccc(Oc2ccc3nccn3n2)c1	0
COc1ccc(Nc2nccc(N3CCC(NC(=O)c4cccc(C#N)c4)C3)n2)cc1 (centres unmarked) [GSK1379730]	14
NC(=O)c1ccc(-c2cc3ncnc(SCC(=O)O)c3s2)cc1	35

---

# Test system: DAPK2
# condition: concentration: 1 μM,replicates: in singlicate; n = 1

compound	%Inh
COc1cccc(OC)c1C(=O)Nc1cccc(-c2nn3ccccc3c2-c2ccnc(Nc3cccc(F)c3)n2)c1	6%
COc1cc2nccc(Nc3ccc(Oc4ccccc4)cc3)c2cc1OC.Cl	0%
O=C1NCCc2[nH]c(-c3ccncc3)cc21	66%
O=C(NCC1CC1)c1ccc(-c2cc(C(=O)NC3CC3)ccc2F)cc1	3%
COc1ccc(Nc2nccc(N3CCC(NC(=O)c4cccc(C#N)c4)C3)n2)cc1 (centres unmarked)	0%
